# settings: buffer; pH 7.4; 200.0 µM

{"molecule": "CC(=O)NC1C(=O)N=C(SCC(=O)Nc2c(C)cccc2C)NC1=O (centres undefined)", "solubility kinetic": "> 54.4 µg/mL"}
{"molecule": "CCC(C)NC(=O)Cn1nc(Cc2ccncc2)c2ccccc2c1=O (centres undefined)", "solubility kinetic": "> 52.6 µg/mL"}
{"molecule": "CSc1cccc(NC(=O)CC(C)n2ccnc2)c1 (centres undefined)", "solubility kinetic": "> 41.3 µg/mL"}
{"molecule": "CC(=O)OC(CC(=O)O)C[N+](C)(C)C.[Cl-] (centres undefined)", "solubility kinetic": "> 36 µg/mL"}

###

# settings: buffer; pH 7.4; 200.0 µM
measurementKind: log10(solubility kinetic) (log10 of the value in µg/mL)

{"compound": "CSc1c(CC(=O)Nc2ccccc2)n(C)c2ccccc12", "measurementKind": "log10(solubility kinetic)", "dataValue": -0.40}
{"compound": "Cn1cc(C(O)CN2CCCCC2)c2ccccc21 (stereo not drawn)", "measurementKind": "log10(solubility kinetic)", "dataValue": 1.58}
{"compound": "COc1ccc(C(=O)O/N=C(\\C)c2cnccn2)cc1", "measurementKind": "log10(solubility kinetic)", "dataValue": 0.95}
{"compound": "CCc1cccc(CC)c1NC(=O)CN1CCc2cc(OC)c(OC)cc2C1", "measurementKind": "log10(solubility kinetic)", "dataValue": 1.59}
{"compound": "COc1ccc(CNC(=O)c2cc(C(C)=O)c[nH]2)cc1", "measurementKind": "log10(solubility kinetic)", "dataValue": 1.11}
{"compound": "O=[N+]([O-])c1ccccc1/C=C/CN1CCCCC1CO (stereo not drawn)", "measurementKind": "log10(solubility kinetic)", "dataValue": 1.54}

###

# settings: buffer; pH 7.4; 200.0 µM
Catalogue of solubility kinetic values
measurementKind: solubility kinetic (µg/mL)

{"compound": "O=C(COC(=O)C1CC1)Nc1ccc2[nH]c(=O)[nH]c2c1", "measurementKind": "solubility kinetic", "measureUnit": "µg/mL", "resultModifier": ">", "dataValue": 41.3}
{"compound": "CCC(C)NC(=S)Nc1ccc(F)cc1 (stereo not given)", "measurementKind": "solubility kinetic", "measureUnit": "µg/mL", "resultModifier": ">", "dataValue": 33.9}
{"compound": "Cc1ccc(NC(=O)COC(=O)C2C3CC4OC(=O)C2C4C3)cc1 (stereo not given)", "measurementKind": "solubility kinetic", "measureUnit": "µg/mL", "resultModifier": "=", "dataValue": 47.3}
{"compound": "CNC(=O)/C(C#N)=C/c1c(N2CCN(C)CC2)nc2c(C)cccn2c1=O", "measurementKind": "solubility kinetic", "measureUnit": "µg/mL", "resultModifier": ">", "dataValue": 55}
{"compound": "Cc1ccc(C2=NCC(=O)Nc3ccc(Br)cc32)cc1", "measurementKind": "solubility kinetic", "measureUnit": "µg/mL", "resultModifier": "=", "dataValue": 42.1}
{"compound": "CCCN(CCC)S(=O)(=O)c1cccc(-c2csc(C)n2)c1", "measurementKind": "solubility kinetic", "measureUnit": "µg/mL", "resultModifier": "=", "dataValue": 8}
{"compound": "O=c1cc(O)c2c(=O)n(Cc3ccccc3)c3ccccc3c2o1", "measurementKind": "solubility kinetic", "measureUnit": "µg/mL", "resultModifier": "=", "dataValue": 32.6}
{"compound": "CCn1c(C)c(C(=O)Nc2ccc(OC)cc2)c2cc(OC)ccc21", "measurementKind": "solubility kinetic", "measureUnit": "µg/mL", "resultModifier": "=", "dataValue": 0.4}
{"compound": "Fc1cccc(Cl)c1CSC1=NCCS1", "measurementKind": "solubility kinetic", "measureUnit": "µg/mL", "resultModifier": "=", "dataValue": 2.3}
{"compound": "O=C(OCC(=O)c1ccccc1)C1=NN(c2ccccc2)C(=O)CC1", "measurementKind": "solubility kinetic", "measureUnit": "µg/mL", "resultModifier": ">", "dataValue": 50.5}
{"compound": "O=C(NC(=O)c1ccccc1F)OCc1ccc(Cl)cc1Cl", "measurementKind": "solubility kinetic", "measureUnit": "µg/mL", "resultModifier": "<", "dataValue": 0.7}
{"compound": "Cc1ccc(N2C(=O)CCC2(C#N)c2ccccc2)cc1 (stereo not given)", "measurementKind": "solubility kinetic", "measureUnit": "µg/mL", "resultModifier": ">", "dataValue": 41.5}
{"compound": "O=C(Nc1ccc2c(c1)C(=O)OC2)c1ccccc1Cl", "measurementKind": "solubility kinetic", "measureUnit": "µg/mL", "resultModifier": "=", "dataValue": 41}
{"compound": "COC(=O)N1CCN(c2ccc(C)cc2)C(C)C1 (stereo not given)", "measurementKind": "solubility kinetic", "measureUnit": "µg/mL", "resultModifier": ">", "dataValue": 37.2}
{"compound": "COC(=O)Nc1nc(-c2cc(Cl)ccc2Cl)cs1", "measurementKind": "solubility kinetic", "measureUnit": "µg/mL", "resultModifier": "<", "dataValue": 0.3}
{"compound": "Cc1ccc(C2=NN(CC(=O)NCc3cccs3)C(=O)CC2)cc1", "measurementKind": "solubility kinetic", "measureUnit": "µg/mL", "resultModifier": ">", "dataValue": 51.2}
{"compound": "CCCCNC(=O)COC(=O)c1cc(C)oc1C", "measurementKind": "solubility kinetic", "measureUnit": "µg/mL", "resultModifier": ">", "dataValue": 38}
{"compound": "COc1cc2c(cc1OC)C(c1ccccc1F)NCC2 (stereo not given)", "measurementKind": "solubility kinetic", "measureUnit": "µg/mL", "resultModifier": ">", "dataValue": 43.1}
{"compound": "CC1CCCCC1NC(=O)c1cc(S(=O)(=O)N2CCOCC2)ccc1Cl (stereo not given)", "measurementKind": "solubility kinetic", "measureUnit": "µg/mL", "resultModifier": "=", "dataValue": 16.7}
{"compound": "COc1cccc(C(=O)Nc2ccc3ccccc3c2)c1", "measurementKind": "solubility kinetic", "measureUnit": "µg/mL", "resultModifier": "=", "dataValue": 1.6}
{"compound": "O=C(NC1CCCCC1)c1cc([N+](=O)[O-])ccc1N1CCCC1", "measurementKind": "solubility kinetic", "measureUnit": "µg/mL", "resultModifier": "=", "dataValue": 3.3}
{"compound": "CC(C)NC(=O)NC(=O)COC(=O)c1cc[n+]([O-])cc1", "measurementKind": "solubility kinetic", "measureUnit": "µg/mL", "resultModifier": ">", "dataValue": 42.2}
{"compound": "O=C1CSC(c2ccc([N+](=O)[O-])cc2)N1Cc1ccccc1 (stereo not given)", "measurementKind": "solubility kinetic", "measureUnit": "µg/mL", "resultModifier": "=", "dataValue": 32.5}
{"compound": "CCOC(=O)C1=C(C)N(CC(C)C)C(=O)C1", "measurementKind": "solubility kinetic", "measureUnit": "µg/mL", "resultModifier": ">", "dataValue": 33.8}
{"compound": "COc1ccc(C(=O)CC(=O)C(=O)Nc2cccc(C(C)=O)c2)cc1", "measurementKind": "solubility kinetic", "measureUnit": "µg/mL", "resultModifier": "=", "dataValue": 13.9}
{"compound": "Cc1ccc(NC(=O)CN2CCCC2)cc1.Cl", "measurementKind": "solubility kinetic", "measureUnit": "µg/mL", "resultModifier": ">", "dataValue": 38.2}
{"compound": "Cc1c(/C=C(\\CC(=O)O)c2nc3ccccc3s2)cc(C#N)n1C", "measurementKind": "solubility kinetic", "measureUnit": "µg/mL", "resultModifier": "=", "dataValue": 44.6}
{"compound": "O=C(CSc1ncn[nH]1)NCc1ccc2c(c1)OCO2", "measurementKind": "solubility kinetic", "measureUnit": "µg/mL", "resultModifier": ">", "dataValue": 43.8}
{"compound": "Cc1ccc(Cl)cc1NC(=O)CON=C(N)c1ccccc1", "measurementKind": "solubility kinetic", "measureUnit": "µg/mL", "resultModifier": "=", "dataValue": 32.4}
{"compound": "CC(C)NCC(O)COc1cccc2[nH]ccc12 (stereo not given)", "measurementKind": "solubility kinetic", "measureUnit": "µg/mL", "resultModifier": ">", "dataValue": 37.2}
{"compound": "O=Cc1c(NCc2ccco2)nc2ccccn2c1=O", "measurementKind": "solubility kinetic", "measureUnit": "µg/mL", "resultModifier": "=", "dataValue": 19.5}
{"compound": "Cn1c(CNC(=O)c2ccc(F)cc2)cc2ccccc21", "measurementKind": "solubility kinetic", "measureUnit": "µg/mL", "resultModifier": "=", "dataValue": 24.7}
{"compound": "Nc1cc(N)nc(SCC(=O)NCC(=O)Nc2ccc(F)c(F)c2F)n1", "measurementKind": "solubility kinetic", "measureUnit": "µg/mL", "resultModifier": "=", "dataValue": 51.3}
{"compound": "CC1CN(C(=O)COC(=O)c2ccc3ncsc3c2)CC(C)O1 (stereo not given)", "measurementKind": "solubility kinetic", "measureUnit": "µg/mL", "resultModifier": ">", "dataValue": 50.2}
{"compound": "Fc1ccccc1CNC(=S)NC1CCCCC1", "measurementKind": "solubility kinetic", "measureUnit": "µg/mL", "resultModifier": ">", "dataValue": 40}
{"compound": "N#Cc1ccccc1OCC(=O)Nc1ccc2c(c1)OCCCO2", "measurementKind": "solubility kinetic", "measureUnit": "µg/mL", "resultModifier": ">", "dataValue": 48.7}
{"compound": "N#CCC(=O)Nc1ccc(C(=O)OCC(=O)c2c[nH]c3ccccc23)cc1", "measurementKind": "solubility kinetic", "measureUnit": "µg/mL", "resultModifier": "=", "dataValue": 4.7}
{"compound": "Cc1cc(NC(=O)COc2cccc([N+](=O)[O-])c2)no1", "measurementKind": "solubility kinetic", "measureUnit": "µg/mL", "resultModifier": "=", "dataValue": 2.9}
{"compound": "COc1cc(OC)c(C(=O)NCC2CCCO2)cc1OC (stereo not given)", "measurementKind": "solubility kinetic", "measureUnit": "µg/mL", "resultModifier": ">", "dataValue": 44.3}
{"compound": "N#Cc1ccccc1NC(=O)COc1ccc2c(c1)OCO2", "measurementKind": "solubility kinetic", "measureUnit": "µg/mL", "resultModifier": "=", "dataValue": 17.1}
{"compound": "CCCn1c(CCl)nc2cc(S(=O)(=O)N3CCOCC3)ccc21", "measurementKind": "solubility kinetic", "measureUnit": "µg/mL", "resultModifier": "=", "dataValue": 0.6}
{"compound": "CSc1nc(NCCCO)c2c3c(sc2n1)CN(C)CC3", "measurementKind": "solubility kinetic", "measureUnit": "µg/mL", "resultModifier": "=", "dataValue": 41.7}
{"compound": "Cl.Fc1ccc(CNCc2ccc3c(c2)OCO3)cc1", "measurementKind": "solubility kinetic", "measureUnit": "µg/mL", "resultModifier": ">", "dataValue": 44.4}
{"compound": "CCOC(=O)C1CCN(S(=O)(=O)c2ccc(-c3ccccn3)s2)CC1", "measurementKind": "solubility kinetic", "measureUnit": "µg/mL", "resultModifier": "=", "dataValue": 3.9}
{"compound": "CCOC(=O)CNC(=O)CSc1nc(-c2ccccc2)ns1", "measurementKind": "solubility kinetic", "measureUnit": "µg/mL", "resultModifier": ">", "dataValue": 50.6}
